Cited source for all entries: patent US20260242362A1

- experimental.target: kappa opioid receptor (Homo sapiens, UniProt P41145)
- Sequence (P41145 whole entry): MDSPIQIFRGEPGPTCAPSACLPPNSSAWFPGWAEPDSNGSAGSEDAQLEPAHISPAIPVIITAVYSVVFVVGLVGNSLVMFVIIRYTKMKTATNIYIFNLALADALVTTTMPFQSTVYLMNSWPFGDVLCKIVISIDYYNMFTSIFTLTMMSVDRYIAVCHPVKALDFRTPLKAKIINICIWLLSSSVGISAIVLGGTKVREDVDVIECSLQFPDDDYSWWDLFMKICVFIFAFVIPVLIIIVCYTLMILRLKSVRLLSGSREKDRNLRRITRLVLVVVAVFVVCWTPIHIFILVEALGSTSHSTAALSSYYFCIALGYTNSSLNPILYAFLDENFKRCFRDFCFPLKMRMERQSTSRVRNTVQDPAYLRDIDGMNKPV
- experiment.notes: Bias analysis by operational model, G protein vs βarrestin2, U69,593 as reference agonist
- condition.details: U69,593 reference agonist; global parameter fitting
Catalogue of Bias (bias factor 10^ΔΔ(logτ/KA) Gprotein-Barr2) readings, one per entry.

Cc1ccc(/C=C/c2nnc(-c3ccccn3)n2Cc2ccco2)cc1C(F)(F)F [42 (UNC9008)]; 3.5

Incoming: Entry Cc1ccc(/C=C/c2nnc(-c3ccccn3)n2Cc2cccs2)cc1C(F)(F)F [49 (UNC9009)] : reported Bias (bias factor 10^ΔΔ(logτ/KA) Gprotein-Barr2) = ?
Outgoing: 6.7

Incoming: Try this compound next: Cc1ccc(CCc2nnc(-c3nccn3C)n2Cc2cccs2)cc1C(F)(F)F [Compound 56]
Outgoing: 12

Incoming: Try this compound next: Cc1ccc(/C=C/c2nnc(-c3ccccn3)n2Cc2ccco2)cc1C(F)(F)F (single isomer, unassigned) [Compound 40]
Outgoing: 5
